Recorded values, source ChEMBL document CHEMBL1142390.

molecular target: Cation-independent mannose-6-phosphate receptor (Bos taurus); assay: Displacement of pentamannosyl phosphate bovine serum albumin from M6P/IGF2R
READOUT: IC50 (µM)

CC(=O)N[C@H](C(=O)N[C@@H](CCCCNC(=O)c1ccccc1N)C(=O)N[C@H](C(N)=O)[C@@H](C)O[C@H]1O[C@H](CO)[C@@H](O)[C@H](O)[C@@H]1O[C@H]1O[C@H](COP(=O)(O)O)[C@@H](O)[C@H](O)[C@@H]1O)[C@@H](C)O[C@H]1O[C@H](CO)[C@@H](O)[C@H](O)[C@@H]1O[C@H]1O[C@H](COP(=O)(O)O)[C@@H](O)[C@H](O)[C@@H]1O | 0.09
CC(=O)NCCCC[C@H](NC(=O)[C@@H](NC(C)=O)[C@@H](C)O[C@H]1O[C@H](CO)[C@@H](O)[C@H](O)[C@@H]1O[C@H]1O[C@H](COP(=O)(O)O)[C@@H](O)[C@H](O)[C@@H]1O)C(=O)N[C@H](C(N)=O)[C@@H](C)O[C@H]1O[C@H](CO)[C@@H](O)[C@H](O)[C@@H]1O[C@H]1O[C@H](COP(=O)(O)O)[C@@H](O)[C@H](O)[C@@H]1O | 1.8
CC(=O)N[C@H](C(=O)N[C@@H](CCCCN)C(=O)N[C@H](C(N)=O)[C@@H](C)O[C@H]1O[C@H](CO)[C@@H](O)[C@H](O)[C@@H]1O[C@H]1O[C@H](COP(=O)(O)O)[C@@H](O)[C@H](O)[C@@H]1O)[C@@H](C)O[C@H]1O[C@H](CO)[C@@H](O)[C@H](O)[C@@H]1O[C@H]1O[C@H](COP(=O)(O)O)[C@@H](O)[C@H](O)[C@@H]1O | 20

1. O=P(O)(O)OC[C@H]1OC(O)[C@@H](O)[C@@H](O)[C@@H]1O (stereo partly specified)
2. O=P(O)(O)OC[C@H]1O[C@H](OCCCCCCCCCCCCO[C@H]2O[C@H](COP(=O)(O)O)[C@@H](O)[C@H](O)[C@@H]2O)[C@@H](O)[C@@H](O)[C@@H]1O
Quick check, higher IC50 between 1 and 2 ? Output the label that corresponds to your choice.
1
(1: 11.5 µM, 2: 3.7 µM)

====

molecular target: Cation-independent mannose-6-phosphate receptor (Bos taurus) (UniProt P08169); assay: Displacement of pentamannosyl phosphate bovine serum albumin from M6P/IGF2R relative to M6P
Sequence (P08169 whole entry, looked up): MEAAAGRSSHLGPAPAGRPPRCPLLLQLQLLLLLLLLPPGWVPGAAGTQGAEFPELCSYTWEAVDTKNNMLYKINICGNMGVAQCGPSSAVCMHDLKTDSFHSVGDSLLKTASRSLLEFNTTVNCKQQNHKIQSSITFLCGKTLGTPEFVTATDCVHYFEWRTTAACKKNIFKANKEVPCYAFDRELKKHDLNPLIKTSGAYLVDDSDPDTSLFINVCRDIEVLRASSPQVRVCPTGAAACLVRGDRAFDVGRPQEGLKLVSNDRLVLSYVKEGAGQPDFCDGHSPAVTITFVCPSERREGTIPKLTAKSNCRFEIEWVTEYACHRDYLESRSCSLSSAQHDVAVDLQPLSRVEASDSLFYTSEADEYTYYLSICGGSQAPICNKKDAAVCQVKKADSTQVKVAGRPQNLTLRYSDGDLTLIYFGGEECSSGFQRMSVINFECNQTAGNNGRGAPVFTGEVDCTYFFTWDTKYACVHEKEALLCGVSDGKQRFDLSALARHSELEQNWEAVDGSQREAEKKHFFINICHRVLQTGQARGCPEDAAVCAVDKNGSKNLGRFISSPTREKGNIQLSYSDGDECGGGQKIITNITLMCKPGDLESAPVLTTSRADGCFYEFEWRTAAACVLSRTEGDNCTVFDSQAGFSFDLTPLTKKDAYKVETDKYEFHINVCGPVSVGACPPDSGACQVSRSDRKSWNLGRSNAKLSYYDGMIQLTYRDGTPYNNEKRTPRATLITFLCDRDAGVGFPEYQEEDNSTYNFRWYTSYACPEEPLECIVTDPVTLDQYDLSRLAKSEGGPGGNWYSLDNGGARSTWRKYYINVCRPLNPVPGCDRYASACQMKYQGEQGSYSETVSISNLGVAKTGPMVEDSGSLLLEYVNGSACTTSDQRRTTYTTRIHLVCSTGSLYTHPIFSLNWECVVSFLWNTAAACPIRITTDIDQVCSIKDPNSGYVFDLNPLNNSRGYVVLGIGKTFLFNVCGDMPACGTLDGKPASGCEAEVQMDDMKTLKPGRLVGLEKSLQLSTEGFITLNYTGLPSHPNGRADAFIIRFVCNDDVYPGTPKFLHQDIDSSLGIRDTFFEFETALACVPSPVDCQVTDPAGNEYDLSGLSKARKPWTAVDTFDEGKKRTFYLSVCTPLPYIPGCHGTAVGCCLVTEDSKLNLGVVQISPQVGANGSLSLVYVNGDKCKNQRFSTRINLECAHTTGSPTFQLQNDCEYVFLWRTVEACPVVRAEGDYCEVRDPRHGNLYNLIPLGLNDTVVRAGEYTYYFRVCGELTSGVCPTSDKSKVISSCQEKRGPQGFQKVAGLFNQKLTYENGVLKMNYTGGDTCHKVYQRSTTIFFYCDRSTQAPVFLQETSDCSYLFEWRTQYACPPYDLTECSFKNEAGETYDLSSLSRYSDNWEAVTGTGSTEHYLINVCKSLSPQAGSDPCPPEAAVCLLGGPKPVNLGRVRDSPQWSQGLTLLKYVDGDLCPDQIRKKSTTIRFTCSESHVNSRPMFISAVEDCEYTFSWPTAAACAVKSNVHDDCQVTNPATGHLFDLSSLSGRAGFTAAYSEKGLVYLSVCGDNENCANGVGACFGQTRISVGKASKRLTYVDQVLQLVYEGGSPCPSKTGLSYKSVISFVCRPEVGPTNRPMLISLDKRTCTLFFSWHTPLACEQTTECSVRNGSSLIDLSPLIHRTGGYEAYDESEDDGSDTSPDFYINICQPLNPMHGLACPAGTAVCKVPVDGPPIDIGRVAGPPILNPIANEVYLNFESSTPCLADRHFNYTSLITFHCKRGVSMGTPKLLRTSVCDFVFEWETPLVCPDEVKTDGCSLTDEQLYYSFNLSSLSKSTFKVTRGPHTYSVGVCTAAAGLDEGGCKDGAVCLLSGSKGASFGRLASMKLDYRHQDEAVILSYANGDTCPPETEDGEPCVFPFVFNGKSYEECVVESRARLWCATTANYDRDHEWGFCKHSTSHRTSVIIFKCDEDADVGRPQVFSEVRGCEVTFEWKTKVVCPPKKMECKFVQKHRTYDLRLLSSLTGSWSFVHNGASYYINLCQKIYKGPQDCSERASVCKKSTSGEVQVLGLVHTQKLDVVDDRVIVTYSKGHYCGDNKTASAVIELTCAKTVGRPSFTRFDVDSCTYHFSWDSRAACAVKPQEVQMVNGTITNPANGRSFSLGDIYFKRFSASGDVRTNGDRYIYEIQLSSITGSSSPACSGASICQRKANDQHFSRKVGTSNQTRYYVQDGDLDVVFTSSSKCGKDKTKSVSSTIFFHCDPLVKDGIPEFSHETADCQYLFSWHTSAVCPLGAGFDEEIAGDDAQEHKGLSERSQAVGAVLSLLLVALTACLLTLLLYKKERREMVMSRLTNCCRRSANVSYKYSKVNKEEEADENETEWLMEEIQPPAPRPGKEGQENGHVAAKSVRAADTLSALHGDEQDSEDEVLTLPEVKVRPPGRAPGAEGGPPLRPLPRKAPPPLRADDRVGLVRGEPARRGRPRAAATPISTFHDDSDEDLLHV
READOUT: relative binding affinity (RBA)
Field format: numeric only.

Look over these answered cases.
CC(=O)NCCCC[C@H](NC(=O)[C@@H](NC(C)=O)[C@@H](C)O[C@H]1O[C@H](CO)[C@@H](O)[C@H](O)[C@@H]1O[C@H]1O[C@H](COP(=O)(O)O)[C@@H](O)[C@H](O)[C@@H]1O)C(=O)N[C@H](C(N)=O)[C@@H](C)O[C@H]1O[C@H](CO)[C@@H](O)[C@H](O)[C@@H]1O[C@H]1O[C@H](COP(=O)(O)O)[C@@H](O)[C@H](O)[C@@H]1O | 144
CC(=O)N[C@H](C(=O)N[C@@H](CCCCN)C(=O)N[C@H](C(N)=O)[C@@H](C)O[C@H]1O[C@H](CO)[C@@H](O)[C@H](O)[C@@H]1O[C@H]1O[C@H](COP(=O)(O)O)[C@@H](O)[C@H](O)[C@@H]1O)[C@@H](C)O[C@H]1O[C@H](CO)[C@@H](O)[C@H](O)[C@@H]1O[C@H]1O[C@H](COP(=O)(O)O)[C@@H](O)[C@H](O)[C@@H]1O | 13
O=P(O)(O)OC[C@H]1O[C@H](OCCCCCCCCCCCCO[C@H]2O[C@H](COP(=O)(O)O)[C@@H](O)[C@H](O)[C@@H]2O)[C@@H](O)[C@@H](O)[C@@H]1O | 3.02

Give its relative binding affinity (RBA) value. Item: CC(=O)N[C@H](C(=O)N[C@@H](CCCCNC(=O)c1ccccc1N)C(=O)N[C@H](C(N)=O)[C@@H](C)O[C@H]1O[C@H](CO)[C@@H](O)[C@H](O)[C@@H]1O[C@H]1O[C@H](COP(=O)(O)O)[C@@H](O)[C@H](O)[C@@H]1O)[C@@H](C)O[C@H]1O[C@H](CO)[C@@H](O)[C@H](O)[C@@H]1O[C@H]1O[C@H](COP(=O)(O)O)[C@@H](O)[C@H](O)[C@@H]1O
2890
